# experiment summary: Cytotoxicity assay (Cell Titer Glo)
# experimental parameters: African green monkey, CC50 (μM), Table 13, Scaffold 4; Vero cells
quantity measured: CC50 at 3 days (µM)
One number for each entry, in µM.

So for Cc1ccc2nc(-c3cccc(NC(=O)c4ccco4)c3)[nH]c2c1 , the logged CC50 at 3 days turned out to be 131

###

# experiment summary: in vitro
# experimental parameters: African green monkey, CC50
quantity measured: CC50 at 3 days (µM)
Numbers only, in µM.

Below is a list of compounds. For each, state its recorded CC50 at 3 days.
1. Nc1nc(N)nc(COC(=O)CCc2c(-c3ccc(F)cc3)[nH]c3ccc(F)cc23)n1
2. Cc1ccc2[nH]c(-c3ccc(NC(=O)c4cccs4)cc3)nc2c1

Result:
[422, 78.7]

###

# System: EV-A71
# experiment summary: CPE inhibition assay (Cell Titer Glo) against EV-A71 in Vero cells
# Format: cell-based, Enterovirus A71
# experimental parameters: single concentration 50 μM; EV-A71, Vero cells
quantity measured: anti-viral activity (luminescence above 3SD cutoff)

molecule: O=C(Cn1nc2c(Oc3cccc(F)c3)nccn2c1=O)Nc1cccc(Cl)c1 [Compound 167]
result: inhibited EV-A71
--
molecule: Nc1nc(N)nc(COC(=O)CCc2c(-c3ccc(F)cc3)[nH]c3ccc(F)cc23)n1 [Compound 111]
result: inhibited EV-A71

###

# experiment summary: in vitro
# experimental parameters: African green monkey, CC50 (μM)
quantity measured: CC50 at 3 days

line notation: O=C(Cc1ccccc1)Nc1ccc(-c2nc3ccccc3[nH]2)cc1
result: > 400 µM

line notation: Cc1ccc(OCC(=O)Nc2ccc(-c3nc4cc(C)ccc4[nH]3)cc2)cc1
result: > 400 µM

line notation: O=C(Cn1nc2c(Oc3cccc(F)c3)nccn2c1=O)Nc1cccc(Cl)c1
result: > 1000 µM

line notation: CCC(=O)Nc1ccc(-c2nc3ccc(Cl)cc3[nH]2)cc1
result: > 400 µM

line notation: Cc1ccc2[nH]c(-c3ccc(NC(=O)COc4ccccc4)cc3)nc2c1
result: > 400 µM

line notation: O=C(Nc1ccc2[nH]c(-c3ccc(Br)o3)nc2c1)c1ccccc1
result: > 200 µM

Lab note: each molecule below needs its CC50 at 3 days filled in.
1. Cc1ccc2[nH]c(-c3ccc(NC(=O)c4ccc(Br)o4)cc3)nc2c1
2. O=C(Nc1ccc(-c2nc3ccccc3[nH]2)cc1)c1ccc(C(=O)Nc2ccc(-c3nc4ccccc4[nH]3)cc2)cc1
3. Cc1ccc2[nH]c(-c3ccc(NC(=O)C4CC4)cc3)nc2c1

Result:
1. > 400 µM
2. > 400 µM
3. > 400 µM
